// provenance: patent EP2368885A1

- Tested on: MiaPaCa-2 cells
- Test summary: MTT colorimetric cytotoxicity assay on pancreatic chemoresistant cancer MiaPaCa-2 cells
- Experimental parameters: 48 hours incubation, tested concentration not stated
Quantity name: Cytotoxicity (en %)

INSERT INTO results (smiles_notation, reported_value) VALUES
  ('CCCCCCCCCCCCOc1cc2nc3ccc(C(=O)O)cc3nc2cc1OCCCCCCCCCCCC', 'X>50%'),
  ('CCCCCCCCCCCCOc1cc2nc3ccccc3nc2cc1OCCCCCCCCCCCC', 'X>50%'),
  ('CCCCCCCCCCCCOc1cc2nc3cc(N)c(N)cc3nc2cc1OCCCCCCCCCCCC', 'X>50%');
